# ASSAY_NAME: LD50 by the oral route
# SETUP_CONDITIONS: in vivo, mouse
ENDPOINT_NAME: LD50 at 48 h (mg/kg)

COc1ccc(Cc2nccc3cc(OC)c(OC)cc23)cc1OC [papaverine thienyl-2-carboxylate] = 1300

All values here come from patent US4055648A.
